System: MEF A1-2A-BIM cells, caspase 3/7 luminescence, 3 h
assay_remarks: inducers of caspase signal in A1-dependent MEFs – cell-based, luminescence, retest, A1 inhibitor project, dose response (AID 2765)
The source made the active and inactive calls.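 Rule for the calls: active = half-maximal concentration for the rise in caspase light signal at or below ten times the top tested dose; inconclusive = flat fit between 30% and 70% activity, or unreliable curve fit; inactive = the rest.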
# output must be one of TRUE = active, FALSE = inactive

Reference set, count: 4
                            molecule_smiles  label
0  COc1ccc2nc(SCC(=O)N3CCN(c4ccc(F)cc4)CC3)c(C#N)cc2c1  FALSE
1         O=C(Cc1cn2ccsc2n1)Nc1cccc2cnccc12  FALSE
2  CCOC(=O)c1c(C)[nH]c(C)c1C(=O)CSc1nc2ccccc2n1CCOC  FALSE
3  O=C(N=Nc1c(O)[nH]c2ccc([N+](=O)[O-])cc12)c1cc(-c2ccccc2Cl)nc2ccccc12  FALSE

Please turn your attention to the following entry.
Exercise: Please let me know the test result on file for "COc1ccc2c(c1)CCc1c(C(=O)Nc3cc(C)n(Cc4ccc(Cl)cc4)n3)noc1-2" .
Solution: TRUE
